Data provenance: ChEMBL document CHEMBL1137195

experiment: plasma clearance in rats at 2 mg/kg; format: ADME, organism-based; parameters: dose 2 mg/kg; settings: rat
measure name: clearance (mL/min/kg)
Value expressed in mL/min/kg; do not type the unit.

Identify measured clearance corresponding to CC(C)COC(=O)N[C@H](C(=O)N1C[C@H](C2CCCCC2)C[C@H]1C(=O)N[C@@H](CC(F)F)C(=O)NCCc1c(F)cc(C(=O)NS(C)(=O)=O)cc1F)C(C)C
46

----------
Listed compounds paired with reported clearance
test: plasma clearance in rats; type: ADME, organism-based; conditions: rat
Value expressed in mL/min/kg; do not type the unit.

# annotated cases, reported clearance shown
>  <compound>
CC(C)COC(=O)N[C@H](C(=O)N1CC(c2ccccc2)C[C@@H]1C(=O)N[C@@H](CC(F)F)C(=O)NCCc1c(F)cc(C(=O)O)cc1F)C(C)C (some centres undefined)

>  <clearance / mL/min/kg>
36

$$$$
>  <compound>
CC(C)COC(=O)N[C@H](C(=O)N1CC(OCc2ccccc2)C[C@@H]1C(=O)N[C@@H](CC(F)F)C(=O)NCCc1c(F)cc(C(=O)O)cc1F)C(C)C (stereo in doubt; trans)

>  <clearance / mL/min/kg>
222

$$$$

Identify measured clearance corresponding to CC(C)COC(=O)N[C@H](C(=O)N1C[C@H](C2CCCCC2)C[C@H]1C(=O)N[C@@H](CC(F)F)C(=O)NCCc1c(F)cc(-c2nnn[nH]2)cc1F)C(C)C
9

Identify measured clearance corresponding to CC(C)COC(=O)N[C@H](C(=O)N1CC(C2CCCCC2)C[C@@H]1C(=O)N[C@@H](CC(F)F)C(=O)NCCc1c(F)cc(C(=O)O)cc1F)C(C)C (some centres undefined)
44

----------
Listed compounds paired with reported Ki
molecular target: Hepatitis C virus serine protease, NS3/NS4A (Hepatitis C virus, UniProt A3EZI9+D2K2A8); assay: Inhibitory activity against Hepatitis C virus Non structural protein 3 serine protease/Non structural protein 4A serine protease
Sequence (D2K2A8 whole entry): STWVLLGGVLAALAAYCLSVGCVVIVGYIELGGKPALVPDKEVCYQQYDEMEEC
Sequence (A3EZI9 whole entry): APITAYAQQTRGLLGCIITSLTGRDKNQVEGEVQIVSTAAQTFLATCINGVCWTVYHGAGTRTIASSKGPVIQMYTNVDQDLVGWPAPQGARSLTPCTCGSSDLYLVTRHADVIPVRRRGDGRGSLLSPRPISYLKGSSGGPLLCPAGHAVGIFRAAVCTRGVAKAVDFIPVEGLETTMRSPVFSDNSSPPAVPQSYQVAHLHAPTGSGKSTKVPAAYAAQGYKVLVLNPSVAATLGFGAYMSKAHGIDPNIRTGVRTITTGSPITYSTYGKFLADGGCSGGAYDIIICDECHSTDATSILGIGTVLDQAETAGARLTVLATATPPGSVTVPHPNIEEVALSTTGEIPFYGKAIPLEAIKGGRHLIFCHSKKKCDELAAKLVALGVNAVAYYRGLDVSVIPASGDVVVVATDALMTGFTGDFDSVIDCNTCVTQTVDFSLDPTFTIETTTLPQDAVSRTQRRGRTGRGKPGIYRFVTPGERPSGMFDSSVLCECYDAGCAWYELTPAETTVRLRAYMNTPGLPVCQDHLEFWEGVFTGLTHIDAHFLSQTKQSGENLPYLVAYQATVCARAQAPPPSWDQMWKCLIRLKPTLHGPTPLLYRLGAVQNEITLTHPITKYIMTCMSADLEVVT
Value expressed in nM; do not type the unit.

>  <compound>
CC(C)COC(=O)N[C@H](C(=O)N1C[C@H](C2CCCCC2)C[C@H]1C(=O)N[C@@H](CC(F)F)C(=O)NCCc1c(F)ccc(OC(C)C(=O)O)c1F)C(C)C (stereo partly drawn)

>  <Ki / nM>
120

$$$$

Identify measured Ki corresponding to CC(C)COC(=O)N[C@H](C(=O)N1C[C@H](C2CCCCC2)C[C@H]1C(=O)N[C@@H](CC(F)F)C(=O)NCCc1cccc(NC(C(=O)O)c2ccccc2)c1)C(C)C (stereo partly drawn)
650

Identify measured Ki corresponding to COc1ccc2c(O[C@@H]3C[C@@H](C(=O)N[C@@H](CC(F)F)C(=O)NCCc4c(F)cc(C(=O)O)cc4F)N(C(=O)[C@@H](NC(=O)OCC(C)C)C(C)C)C3)cc(-c3csc(NC(C)C)n3)nc2c1
20
